subjectOfTest: Potassium voltage-gated channel subfamily B member 1 (Homo sapiens, UniProt Q14721)
assayOverview: Inhibition of human KV2.1 stably expressed in HEK293 cells by whole cell patch-clamp assay
Reported IC50 values follow for various molecules
Give the value, in units of nM, as a plain number.

Answered examples (3):
COc1ccc(NC(=O)C(C)C)cc1C(=O)NC(C)c1cccc(-c2nccs2)c1 (stereo not drawn): 3000
CC(C)C(=O)Nc1ccc(N(C)C)c(C(=O)NCc2ccccn2)c1: 540
CC(C)C(=O)Nc1ccc(N(C)C)c(C(=O)NCc2cccc(-c3nccs3)c2)c1: 390

Lab note: next molecule to report on.
Prompt: Look up IC50 for this molecule: CCOc1ccc(NC(=O)C2CCC2)cc1C(=O)NC(C)c1cccc(-c2nccs2)c1 (stereo not drawn)
Response: 550

* * *

subjectOfTest: Potassium voltage-gated channel subfamily B member 1 (Homo sapiens, UniProt Q14721)
Sequence (Q14721 whole entry): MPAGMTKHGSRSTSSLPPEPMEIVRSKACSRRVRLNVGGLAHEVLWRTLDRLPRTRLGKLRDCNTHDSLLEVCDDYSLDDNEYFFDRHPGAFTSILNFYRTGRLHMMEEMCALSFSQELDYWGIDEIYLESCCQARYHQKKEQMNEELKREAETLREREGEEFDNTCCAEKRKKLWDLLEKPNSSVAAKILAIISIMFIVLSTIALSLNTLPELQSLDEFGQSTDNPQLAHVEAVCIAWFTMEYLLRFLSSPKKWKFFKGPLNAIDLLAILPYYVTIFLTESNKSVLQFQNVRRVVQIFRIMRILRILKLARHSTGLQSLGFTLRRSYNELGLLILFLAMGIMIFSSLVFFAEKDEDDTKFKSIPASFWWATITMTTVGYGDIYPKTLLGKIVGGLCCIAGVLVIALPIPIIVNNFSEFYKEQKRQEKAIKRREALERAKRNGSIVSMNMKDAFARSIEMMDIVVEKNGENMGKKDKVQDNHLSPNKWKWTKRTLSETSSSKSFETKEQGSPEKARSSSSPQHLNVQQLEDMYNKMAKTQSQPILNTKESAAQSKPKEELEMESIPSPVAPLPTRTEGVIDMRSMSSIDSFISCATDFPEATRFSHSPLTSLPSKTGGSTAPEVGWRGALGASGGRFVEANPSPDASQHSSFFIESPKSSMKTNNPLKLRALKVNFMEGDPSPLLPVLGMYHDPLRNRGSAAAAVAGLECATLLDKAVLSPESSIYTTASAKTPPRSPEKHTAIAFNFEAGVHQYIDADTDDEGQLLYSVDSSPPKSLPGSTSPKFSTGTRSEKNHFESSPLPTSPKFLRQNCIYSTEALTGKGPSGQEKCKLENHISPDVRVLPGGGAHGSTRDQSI
assayOverview: Inhibition of human KV2.1 stably expressed in HEK293 cells by whole cell patch-clamp assay
Format: cell-based
Reported IC50 values follow for various compounds
Give the value, in units of nM, as a plain number.

Answered examples (6):
CCOc1ccc(NC(=O)C(C)C)cc1C(=O)NC(C)c1cccc(C)c1 (stereo unspecified): 80
CCOc1ccc(NC(=O)C(C)C)cc1C(=O)NCc1cccc(OC(F)F)c1: 300
CCOc1ccc(NS(=O)(=O)CC)cc1C(=O)NC(C)c1cccc(-c2nccs2)c1 (stereo unspecified): 10000
CCOc1ccc(NC(=O)C2CC2)cc1C(=O)NC(C)c1cccc(-c2nccs2)c1 (stereo unspecified): 1100
CCOc1ccc(NC(=O)C(C)C)cc1C(=O)NC(C)c1cccc(OC(F)F)c1 (stereo unspecified): 250
CCCOc1ccc(NC(=O)C(C)C)cc1C(=O)NC(C)c1cccc(-c2nccs2)c1 (stereo unspecified): 590

Prompt: Form field: IC50 recorded for `CCOc1ccc(NC(=O)C(C)C)cc1C(=O)NCc1cccc(-c2nccs2)c1` with Potassium voltage-gated channel subfamily B member 1 (Homo sapiens, UniProt Q14721) (enter value)
Response: 530

Prompt: Form field: IC50 recorded for CCOc1ccc(NC(=O)OC(C)C)cc1C(=O)NC(C)c1cccc(-c2nccs2)c1 (stereo unspecified) with Potassium voltage-gated channel subfamily B member 1 (Homo sapiens, UniProt Q14721) (enter value)
Response: 1000

Prompt: Form field: IC50 recorded for CCOc1ccc(NC(=O)C(C)C)cc1C(=O)NC(C)c1cccc(OC)n1 (stereo unspecified) with Potassium voltage-gated channel subfamily B member 1 (Homo sapiens, UniProt Q14721) (enter value)
Response: 50
